Source: PubChem BioAssay (NCI)

- Test system: KM12 colon
- protocolNotes: NCI tumour cell line growth inhibition, 48 h
Reported TGI values for the following molecules.

Worked examples, 3 molecules total:
COc1cccc2c1C1(O)C2CCCCCCCCCC12OCCCO2 (centres undefined)    > 100 µM
O=C(c1ccco1)N(C(=S)N1CCN(c2ccccc2)CC1)C1CCCCC1    > 100 µM
CC(C)(C)c1cc2c(c(C(C)(C)C)c1O)CC(=O)O2    64.6 µM

Lab note: molecule `CC1=C(C(=O)NCc2ccccc2)C(c2ccc(Cl)c(Cl)c2)C(C(=O)NCc2ccccc2)=C(C)N1` tested on KM12 colon; recorded TGI was > 100 µM
